# stated conditions: 308.15 K; 5000 kPa; Liquid; Vibrating tube method
Can you tell me mass density for the items I'm about to list?
One number for each entry, in kg/m3.

COC(=O)OC [dimethyl carbonate] : 1054.84
CCO : 780.98
CCCO : 795.4

Alright, here's another compound for you.
(Q) Annotate the compound CO with its measured mass density.
(A) 781.85
